Cited source for all entries: the Human Domainome abundance scans (Beltran et al. 2025)

B1: 1-phosphatidylinositol 4,5-bisphosphate phosphodiesterase gamma-2, residues 772 to 827; numbered along this chain, P16885 (parent)
chain: RTVKALYDYKAKRSDELSFCRGALIHNVSKEPGGWWKGDYGTRIQQYFPSNYVEDI

variants of: B1; experiment: abundance fitness (aPCA) (normalised: wild type 0, dead -1); higher = more abundant; growth selection in yeast, the domain comes from the species named; settings: Homo sapiens
experimental-endpoint: abundance fitness
# answer = number (no unit)

A selection of reference data follows.
Input: May I ask what abundance fitness has been recorded for Q45K ?
Output: -0.51

Input: May I ask what abundance fitness has been recorded for G41R ?
Output: -0.234

Input: May I ask what abundance fitness has been recorded for Y52I ?
Output: -0.077

Here is the next item to consider.
Input: May I ask what abundance fitness has been recorded for K10E ?
Output: -0.104
